Origin of the recorded values: patent US7635701B2

- Procedure Details: Particle size analysis on Lecotrac laser particle size analyser, pre and post nanomilling
- Format: physicochemical
- Assay Setup: after wet milling in aqueous 1.5% HPMC with YTZ beads
Value Type: Post-nanomilling 95% percentile particle size
Respond with the figure and its unit, in that order.

Before answering, review these 3 worked examples.
Given Smiles	Result
O=C(NCC1CCCC1)c1cnc(Nc2ccc(F)c(Cl)c2)nc1C(F)(F)F	2.53 μ
O=C(NCC1CCCCC1)c1cnc(Nc2cccc(F)c2)nc1C(F)(F)F	1.40 μ
N#Cc1ccc(Nc2ncc(C(=O)NCC3CCOCC3)c(C(F)(F)F)n2)cc1Cl	1.30 μ

Query block: Please look up its Post-nanomilling 95% percentile particle size: N#Cc1ccc(Nc2ncc(C(=O)NCC3CCCC3)c(C(F)(F)F)n2)cc1
Result block: 1.78 μ

----------
- Target: human cannabinoid CB2 receptor (Homo sapiens)
- Sequence (P34972 whole entry): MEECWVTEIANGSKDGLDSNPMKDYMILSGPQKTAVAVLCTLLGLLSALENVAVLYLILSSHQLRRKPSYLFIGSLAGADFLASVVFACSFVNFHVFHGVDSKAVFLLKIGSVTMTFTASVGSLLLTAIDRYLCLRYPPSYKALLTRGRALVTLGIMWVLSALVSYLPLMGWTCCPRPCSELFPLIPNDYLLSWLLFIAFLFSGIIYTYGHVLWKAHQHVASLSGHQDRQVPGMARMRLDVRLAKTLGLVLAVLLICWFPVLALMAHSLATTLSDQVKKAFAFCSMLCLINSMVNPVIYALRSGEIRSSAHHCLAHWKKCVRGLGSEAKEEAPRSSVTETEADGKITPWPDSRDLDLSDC
- Procedure Details: Cannabinoid CB2 receptor agonist activity in yeast cells (FDGlu fluorescence)
Quick reference for EC50 among some compounds

Compound	EC50
O=C(NCC1CCCO1)c1cnc(Nc2cccc(F)c2)nc1C(F)(F)F (stereo in doubt)	300 to 1000 nM
CC(C)CNC(=O)c1cnc(Nc2cccc(Cl)c2)nc1C(F)(F)F	20 to 300 nM
O=C(NC1CCSCC1)c1cnc(Nc2cccc(Cl)c2Cl)nc1C(F)(F)F	300 to 1000 nM

Query block: Form entry - test system: human cannabinoid CB2 receptor (Homo sapiens); read-out: EC50; compound: O=C(NCC1(O)CCCCC1)c1cnc(Nc2cccc(F)c2)nc1C(F)(F)F
Result block: 300 to 1000 nM

Query block: What is its EC50 for human cannabinoid CB2 receptor (Homo sapiens)? Entry: O=C(c1cnc(Nc2cccc(Br)c2)nc1C(F)(F)F)N1CCCCC1
Result block: 20 to 300 nM

Query block: Form field - read-out: EC50; system: human cannabinoid CB2 receptor (Homo sapiens); submitted item: O=C(NCC1CCCCC1)c1cnc(Nc2ccccc2)nc1C(F)(F)F
Result block: 20 to 300 nM

Query block: # get_value(readout= EC50, system= human cannabinoid CB2 receptor (Homo sapiens)) for N#Cc1ccc(Nc2ncc(C(=O)NCC3CCC3)c(C(F)(F)F)n2)cc1Cl
Result block: 20 to 300 nM

----------
- Procedure Details: Particle size analysis on Lecotrac laser particle size analyser, pre and post nanomilling
- Format: physicochemical
- Assay Setup: after wet milling in aqueous 1.5% HPMC with YTZ beads
Catalogue of Post-nanomilling 50% percentile particle size values
Could you give me the number in μ? Just the number is fine.

See these solved cases before continuing.
Given Smiles	Quantitative Result
O=C(NCC1CCCCC1)c1cnc(Nc2cccc(F)c2)nc1C(F)(F)F	0.40
N#Cc1ccc(Nc2ncc(C(=O)NCC3CCCC3)c(C(F)(F)F)n2)cc1	0.33
N#Cc1ccc(Nc2ncc(C(=O)NCC3CCOCC3)c(C(F)(F)F)n2)cc1Cl	0.34

Query block: Any idea what its Post-nanomilling 50% percentile particle size is? The compound is O=C(NCC1CCCC1)c1cnc(Nc2ccc(F)c(Cl)c2)nc1C(F)(F)F
Result block: 0.64

----------
- Procedure Details: Particle size analysis on Lecotrac laser particle size analyser, pre and post nanomilling
- Format: physicochemical
- Assay Setup: starting material before nanomilling
- Protocol: The particle size of the solid particles of compound (1) may be determined by laser diffraction. […] 2.5 g of compound of example 176 was weighed into a 10 ml centrifuge tube. […] 22.5 ml of aqueous 1.5% HPMC was measured with a measuring cylinder into a 100 ml beaker. […] Compounds of Examples 19, 34, 194, 217, 228, 247 were nanomilled on a 1 g scale using the process described above and the particle size analysed pre and post nanomilling.
Value Type: Pre-nanomilling 95% percentile particle size (μ)
Answer with a number only, understood to be in μ.

Given Smiles	Quantitative Result
O=C(NCC1CCCCC1)c1cnc(Nc2cccc(F)c2)nc1C(F)(F)F	25.5

Query block: Sample O=C(NCC1CCCC1)c1cnc(Nc2ccc(F)c(Cl)c2)nc1C(F)(F)F — what was its Pre-nanomilling 95% percentile particle size?
Result block: 68.7

Query block: What measured Pre-nanomilling 95% percentile particle size goes with N#Cc1ccc(Nc2ncc(C(=O)NCC3CCOCC3)c(C(F)(F)F)n2)cc1Cl ?
Result block: 34.9

Query block: Param item = N#Cc1ccc(Nc2ncc(C(=O)NCC3CCCC3)c(C(F)(F)F)n2)cc1 ; retrieve measured Pre-nanomilling 95% percentile particle size.
Result block: 68.7
